# Tested on: 885512-296-R-J2-PDC complex spheroid viability
# protocol_details: Anticancer human tumor 885512-296-R-J2-PDC patient-derived breast carcinoma cell line growth inhibition; active = viability on the fitted dose curve at most 10% of control; inactive = the rest
# cond: second compound 0.1 µM; first compound 3 µM
# output must be one of active, inactive

stdin: Returns: the outcome recorded for COc1cc(C2c3cc4c(cc3C(OC3OC5COC(C)OC5C(O)C3O)C3COC(=O)C23)OCO4)cc(OC)c1O (stereo not given) + NC1CCC(NC2CC2c2ccccc2)CC1 in this assay.
stdout: inactive

stdin: Returns: the outcome recorded for CCN(c1cc(-c2ccc(CN3CCOCC3)cc2)cc(C(=O)NCc2c(C)cc(C)[nH]c2=O)c1C)C1CCOCC1 + NC1CCC(NC2CC2c2ccccc2)CC1 in this assay.
stdout: inactive

stdin: Returns: the outcome recorded for O=C(C=Cc1cccc(S(=O)(=O)Nc2ccccc2)c1)NO + NC1CC1c1ccc(-c2cccc(O)c2)cc1 in this assay.
stdout: inactive

stdin: Returns: the outcome recorded for Nc1ccccc1NC(=O)c1ccc(CNC(=O)OCc2cccnc2)cc1 + NC1CCC(NC2CC2c2ccccc2)CC1 in this assay.
stdout: inactive

stdin: Returns: the outcome recorded for NS(=O)(=O)OCC1CC(n2ccc3c(NC4CCc5ccccc54)ncnc32)CC1O (stereo not given) + NC1CCC(NC2CC2c2ccccc2)CC1 in this assay.
stdout: active

stdin: Returns: the outcome recorded for O=C(C=Cc1cccc(S(=O)(=O)Nc2ccccc2)c1)NO + NC1CCC(NC2CC2c2ccccc2)CC1 in this assay.
stdout: inactive

----------
# System: 885512-296-R-J2-PDC complex spheroid viability
# protocol_details: Anticancer human tumor 885512-296-R-J2-PDC cell line growth inhibition;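 also: spheroids exposed to agents for 7 days before viability read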
# cond: second compound 3.16 µM; first compound 0.949 µM; stronger effect = lower value
Consider the cut-off 7%. If the recorded viability, T/C is strictly smaller, the label is Y; if not, the label is N.

stdin: Please check: viability, T/C for COc1cc(C2c3cc4c(cc3C(OC3OC5COC(C)OC5C(O)C3O)C3COC(=O)C23)OCO4)cc(OC)c1O (stereo not given) + NC1CC1c1ccc(-c2cccc(O)c2)cc1 , strictly under 7% or not?
stdout: Y

stdin: Please check: viability, T/C for Nc1ccccc1NC(=O)c1ccc(CNC(=O)OCc2cccnc2)cc1 + NC1CC1c1ccc(-c2cccc(O)c2)cc1 , strictly under 7% or not?
stdout: Y

stdin: Please check: viability, T/C for NS(=O)(=O)OCC1CC(n2ccc3c(NC4CCc5ccccc54)ncnc32)CC1O (stereo not given) + NC1CCC(NC2CC2c2ccccc2)CC1 , strictly under 7% or not?
stdout: Y

stdin: Please check: viability, T/C for O=C(C=Cc1cccc(S(=O)(=O)Nc2ccccc2)c1)NO + NC1CC1c1ccc(-c2cccc(O)c2)cc1 , strictly under 7% or not?
stdout: Y

stdin: Please check: viability, T/C for CCN(c1cc(-c2ccc(CN3CCOCC3)cc2)cc(C(=O)NCc2c(C)cc(C)[nH]c2=O)c1C)C1CCOCC1 + NC1CC1c1ccc(-c2cccc(O)c2)cc1 , strictly under 7% or not?
stdout: N

stdin: Please check: viability, T/C for Nc1ccccc1NC(=O)c1ccc(CNC(=O)OCc2cccnc2)cc1 + NC1CCC(NC2CC2c2ccccc2)CC1 , strictly under 7% or not?
stdout: N

stdin: Please check: viability, T/C for CCN(c1cc(-c2ccc(CN3CCOCC3)cc2)cc(C(=O)NCc2c(C)cc(C)[nH]c2=O)c1C)C1CCOCC1 + NC1CCC(NC2CC2c2ccccc2)CC1 , strictly under 7% or not?
stdout: N

stdin: Please check: viability, T/C for NS(=O)(=O)OCC1CC(n2ccc3c(NC4CCc5ccccc54)ncnc32)CC1O (stereo not given) + NC1CC1c1ccc(-c2cccc(O)c2)cc1 , strictly under 7% or not?
stdout: Y

stdin: Please check: viability, T/C for O=C(C=Cc1cccc(S(=O)(=O)Nc2ccccc2)c1)NO + NC1CCC(NC2CC2c2ccccc2)CC1 , strictly under 7% or not?
stdout: N

----------
# System: 885512-296-R-J2-PDC complex spheroid viability
# protocol_details: Anticancer human tumor 885512-296-R-J2-PDC cell line growth inhibition; active = viability on the fitted dose curve at most 10% of control; inactive = the rest;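 also: spheroids exposed to agents for 7 days before viability read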
# cond: second compound 1 µM; first compound 0.1 µM
# output must be one of YES (active), NO (inactive)

Solved cases below.
>  <molecule>
CC[C@@]1(O)C(=O)OCc2c1cc1n(c2=O)Cc2cc3c(CN(C)C)c(O)ccc3nc2-1 + NC1CC1c1ccc(-c2cccc(O)c2)cc1

>  <class_assignment>
YES

$$$$
>  <molecule>
CC1COCCN1c1cc(C2(S(C)(=N)=O)CC2)nc(-c2ccnc3[nH]ccc23)n1 (stereo unspecified) + NC1CC1c1ccc(-c2cccc(O)c2)cc1

>  <class_assignment>
NO

$$$$
>  <molecule>
COc1ccc([C@@H](O)c2cc(-c3ncnc4cc(N5CCOCC5)ccc34)c(F)cc2Cl)nn1 + NC1CC1c1ccc(-c2cccc(O)c2)cc1

>  <class_assignment>
NO

$$$$
>  <molecule>
CC1COCCN1c1cc(-c2ccnn2C)c2ccnc(-c3ccn[nH]3)c2n1 (stereo unspecified) + NC1CC1c1ccc(-c2cccc(O)c2)cc1

>  <class_assignment>
YES

$$$$
>  <molecule>
Nc1ncn(C2CC(O)C(CO)O2)c(=O)n1 (stereo unspecified) + NC1CC1c1ccc(-c2cccc(O)c2)cc1

>  <class_assignment>
NO

$$$$
>  <molecule>
COc1cc(Nc2ncc3c(n2)-c2ccc(Cl)cc2C(c2c(F)cccc2OC)=NC3)ccc1C(=O)O + NC1CCC(NC2CC2c2ccccc2)CC1

>  <class_assignment>
NO

$$$$

stdin: Returns: the outcome recorded for CC1COCCN1c1cc(C2(S(C)(=N)=O)CC2)nc(-c2ccnc3[nH]ccc23)n1 (stereo unspecified) + NC1CCC(NC2CC2c2ccccc2)CC1 in this assay.
stdout: NO

stdin: Returns: the outcome recorded for CC1COCCN1c1cc(-c2ccnn2C)c2ccnc(-c3ccn[nH]3)c2n1 (stereo unspecified) + NC1CCC(NC2CC2c2ccccc2)CC1 in this assay.
stdout: YES

stdin: Returns: the outcome recorded for Cn1ncnc1C1c2n[nH]c(=O)c3cc(F)cc(c23)NC1c1ccc(F)cc1 (stereo unspecified) + NC1CCC(NC2CC2c2ccccc2)CC1 in this assay.
stdout: NO

stdin: Returns: the outcome recorded for O=C(c1cc(Cc2n[nH]c(=O)c3ccccc23)ccc1F)N1CCN(C(=O)C2CC2)CC1 + NC1CC1c1ccc(-c2cccc(O)c2)cc1 in this assay.
stdout: NO

----------
# System: 885512-296-R-J2-PDC complex spheroid viability
# protocol_details: Anticancer human tumor 885512-296-R-J2-PDC cell line growth inhibition;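 also: spheroids exposed to agents for 7 days before viability read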
# cond: second compound 1 µM; first compound 3.16 µM; stronger effect = lower value
Give measured viability, T/C for each item. Keep answers brief.
Answers are plain numbers, in %.

>  <compound>
COc1ccc([C@@H](O)c2cc(-c3ncnc4cc(N5CCOCC5)ccc34)c(F)cc2Cl)nn1 + NC1CC1c1ccc(-c2cccc(O)c2)cc1

>  <value_measured>
52.2

$$$$
>  <compound>
CC1(C)CCC(CN2CCN(c3ccc(C(=O)NS(=O)(=O)c4ccc(NCC5CCOCC5)c([N+](=O)[O-])c4)c(Oc4cnc5[nH]ccc5c4)c3)CC2)=C(c2ccc(Cl)cc2)C1 + NC1CC1c1ccc(-c2cccc(O)c2)cc1

>  <value_measured>
24.4

$$$$

Read the next record carefully.
Known value: 885512-296-R-J2-PDC complex spheroid viability viability, T/C of the compound CC(C)c1c(-c2ccccc2)nc2c(C#N)c[nH]n2c1=O + NC1CCC(NC2CC2c2ccccc2)CC1 equals 148

----------
Give measured IC50 for each item. Keep answers brief.
# Test system: 885512-296-R-J2-PDC complex spheroid viability
# protocol_details: Anticancer human tumor 885512-296-R-J2-PDC cell line growth inhibition;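 also: spheroids exposed to agents for 7 days before viability read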
# cond: curve of first compound; second compound 10 µM
One number for each entry, in nM.

>  <compound>
Nc1ncn(C2CC(O)C(CO)O2)c(=O)n1 (stereo not given) + NC1CC1c1ccc(-c2cccc(O)c2)cc1

>  <value_measured>
46.4

$$$$
>  <compound>
CC[C@@]1(O)C(=O)OCc2c1cc1n(c2=O)Cc2cc3c(CN(C)C)c(O)ccc3nc2-1 + NC1CC1c1ccc(-c2cccc(O)c2)cc1

>  <value_measured>
0.592

$$$$
>  <compound>
COc1cc(C2c3cc4c(cc3C(OC3OC5COC(C)OC5C(O)C3O)C3COC(=O)C23)OCO4)cc(OC)c1O (stereo not given) + NC1CCC(NC2CC2c2ccccc2)CC1

>  <value_measured>
52.8

$$$$
>  <compound>
O=C(c1cc(Cc2n[nH]c(=O)c3ccccc23)ccc1F)N1CCN(C(=O)C2CC2)CC1 + NC1CC1c1ccc(-c2cccc(O)c2)cc1

>  <value_measured>
361

$$$$
>  <compound>
Nc1ncn(C2CC(O)C(CO)S2)c(=O)n1 (stereo not given) + NC1CCC(NC2CC2c2ccccc2)CC1

>  <value_measured>
2.75

$$$$
>  <compound>
Nc1ncn(C2CC(O)C(CO)O2)c(=O)n1 (stereo not given) + NC1CCC(NC2CC2c2ccccc2)CC1

>  <value_measured>
19.8

$$$$

# map each compound to its IC50
1. O=C(C=Cc1cccc(S(=O)(=O)Nc2ccccc2)c1)NO + NC1CCC(NC2CC2c2ccccc2)CC1
2. Nc1ccccc1NC(=O)c1ccc(CNC(=O)OCc2cccnc2)cc1 + NC1CCC(NC2CC2c2ccccc2)CC1
3. COc1ccc([C@@H](O)c2cc(-c3ncnc4cc(N5CCOCC5)ccc34)c(F)cc2Cl)nn1 + NC1CCC(NC2CC2c2ccccc2)CC1
4. CCN(c1cc(-c2ccc(CN3CCOCC3)cc2)cc(C(=O)NCc2c(C)cc(C)[nH]c2=O)c1C)C1CCOCC1 + NC1CC1c1ccc(-c2cccc(O)c2)cc1
5. Nc1ncn(C2CC(O)C(CO)S2)c(=O)n1 (stereo not given) + NC1CC1c1ccc(-c2cccc(O)c2)cc1

stdout:
1: 50; 2: 90.7; 3: 2190; 4: 93.1; 5: 0.989

# map each compound to its IC50
1. CC1(C)CCC(CN2CCN(c3ccc(C(=O)NS(=O)(=O)c4ccc(NCC5CCOCC5)c([N+](=O)[O-])c4)c(Oc4cnc5[nH]ccc5c4)c3)CC2)=C(c2ccc(Cl)cc2)C1 + NC1CCC(NC2CC2c2ccccc2)CC1
2. O=C(c1cc(Cc2n[nH]c(=O)c3ccccc23)ccc1F)N1CCN(C(=O)C2CC2)CC1 + NC1CCC(NC2CC2c2ccccc2)CC1

stdout:
1: 3840; 2: 335
